biological target: SARS-CoV prefusion-stabilized spike protein (SARS-CoV-PreS) (SARS-CoV, UniProt P59594 14-1190); assay: ELISA
# note: boundary value 0.08 nM maps to not fulfilled; EC50 below it maps to fulfilled

{"BINDER": "15H1 VHH-Fc (Fc fusion) QVQLVESGGGLAQAGGSLRLSCASSGLIFSGSAMGWFRQAPGKEREFVGVISWNGRTTYADSVKGRFTISRDDAVNMVWLQMNNLKPEDTAVYYCAADHLNYGSGDVNPRTYDYWGQGTQVTVSS", "GROUP_LABEL": "fulfilled"}
{"BINDER": "5A6 VHH-Fc (Fc fusion) QVQLVESGGGLAQAGGSLRLSCATSGLTFSMSAMGWFRQAPGNEREFVGVINWNGGSSRYADSVRGRFTISRDNAKNTVYLQMNSLKPEDTGVYYCAADALNIGTGEVNPRLYDYWGQGTQVMVSS", "GROUP_LABEL": "not fulfilled"}
{"BINDER": "7A9 VHH-Fc (Fc fusion) QVQLVESGGGLVQAGGSLRLSCSASGGTASRSAMGWFRQAPGKEREFVAGISRRNSGSTYVADSYEDSVKGRFTISRDNAKNTIYLQMNSLKPEDTAVYYCAAEPTLGWYVPRRSVEYEYWGQGTQVTVSS", "GROUP_LABEL": "fulfilled"}
{"BINDER": "11F8 VHH-Fc (Fc fusion) QVQLVESGGGLVQAGGSLRLSCAASGRTVGYYAVGWFRQAPGKERDFVAAISWSGRNTNYADSVTGRFTIFRDNAKNTVDLQMNSLKPEDTAVYYCAADYWNYGSGSEVPNNYDTWGQGTQVTVSS", "GROUP_LABEL": "not fulfilled"}
{"BINDER": "10B8 VHH-Fc (Fc fusion) QVQLVESGGGLVQPGGSLRLSCAASGITLDYYAIAWFRQAPGKEREGVSCFCSSDGDIRYADSVKGRFTISRDNAKNTVYLQMNSLKPEDTAVYYCATERVYSSTWFFHRYSELDFGSWGRGTQVTVSS", "GROUP_LABEL": "not fulfilled"}
{"BINDER": "5G11 VHH-Fc (Fc fusion) QVQLVESGGGLVQAGGSLRLSCAASGRTFSIYAVGWFRQAPGKERDFVAGITWSGGTTYYSDSVKGRFTISRDNAKNTVYLQMNNLKPEDTAIYYCAVDTYSMTLSARSYDYWGQGTQVTVSS", "GROUP_LABEL": "not fulfilled"}
{"BINDER": "5D7 VHH-Fc (Fc fusion) QVQLVESGGGLVQAGGSLRLSCAASGRTGSRYIMGWFRQAPGKEREFVAAINWRGDSTYYADSVKGRFTIARDNAKNTAYLQMNSLKPEDTAVYYCVADRGESYYYTRSTEYTYWGQGTQVTVSS", "GROUP_LABEL": "fulfilled"}
{"BINDER": "9B2 VHH-Fc (Fc fusion) QVQLVESGGGLVQPGGSLRLSCAASGFTLDNYAIGWFRQAPGKEREGVSCISSSDGDTQYADSVKGRFTISRDNAKNTVYLQMNSLKPEDTAVYYCAVEKVYARSWFFHLCSELDFGSWGQGTQVTVSS", "GROUP_LABEL": "not fulfilled"}
{"BINDER": "19E10 VHH-Fc (Fc fusion) QVQLVESGGGLVQPGGSLRLSCVASGSTISINSMGWYRQAPGKAREMVATITNDGPIKYADPVKGRFTISRDNPKNTVYLQMNSLKPEDTAVYYCVADRAYWLAGEWEYWGQGTQVTVSS", "GROUP_LABEL": "fulfilled"}
{"BINDER": "1A11 VHH-Fc (Fc fusion) QVQLVESGGGLVQAGGSLRLSCEVSGSIYSINSMGWYRQAPGKQRELVAGIVSDGRINYADSVKGRFTISRAKNTVYLQMNSLKPEDTAVYYCAADRAFVYAGDYDYLGQGTQVTVSS", "GROUP_LABEL": "fulfilled"}
{"BINDER": "13C8 VHH-Fc (Fc fusion) QVQLVESGGGLVQAGGSLRLSCAASGRTVNKYMTGWFRQTPGKEREFVASIDWSSTTTHYANSVKGRFTISRDKVKNTVYLQMNGLKPEDTAVYYCAAHQDSSYGYTILPIDYDSWGQGTQVTVSS", "GROUP_LABEL": "not fulfilled"}

// provenance: patent US20250382355A1
